Origin of the recorded values: patent US20230382979A1

target-desc: Receptor-binding domain (RBD) of the SARS-CoV-2 spike protein, WA01/2020 strain (SARS-CoV-2, WA01/2020 strain, UniProt P0DTC2 319-541)
measurement-description: SPR (Biacore 8K), antigen immobilized, antibody injected
value-type: Kd (nM)
# output: bare number, implied unit nM

Some binders with known Kd results, for comparison:
[[record]]
binder = "antibody 2729 (antibody, V domains shown) VH: QVTLKESGPVLVKPTETLTLTCTVSGFSLSNARMGVSWIRQPPGKALEWLAHIFSNDEKSYSTYLKSRLTISKDSSKSQVVLTMTIMDPVDTATYYCARTAGRYSSRWGHYYYYMDVWGKGTTVTVSS VL: NFMLTQPHSVSESPGKTVTISCTGSNGSIASNFMQWYQQRPGSAPTIVIYEDNQRPSGVPDRFSGSIDGSSNSASLTISGLKTEDEADYYCQSYDSSDSDLGVFGGGTKLTVL"
value_unit = "nM"
endpoint_result = 0.015

[[record]]
binder = "antibody 2025 (antibody, V domains shown) VH: QVQLVQSGAEVKKPGASVKVSCKVSGYTLIELSMHWVRQAPGKGLEWMGGFDPEDVETIYAQKFQGRVTMTEDTSTDTAYMELSSLRSEDTAVYYCATAYAVQWRGMIGYWGQGTLVTVSS VL: QSALTQPASVSGSPGQSITISCTGTSSDVGSYNLVSWYQQHPGKAPKLMIYEVSKRPSGVSNRFSGSKSGNTASLTISGLQAEDEADYYCSSYAGSSTFSYVFGTGTKVTVL"
value_unit = "nM"
endpoint_result = 7.13

[[record]]
binder = "antibody 1213 (antibody, V domains shown) VH: QMQLVQSGAEVKKTGSSVKVSCEASENTFTNRYLHWVRQAPGQALEWMGWITPFQGNTHYAQKFQDRVTITRDRSMNTVYMELSSLRSEDTAIYYCASGGQYGPGSYYFEFWGQGTLVTVSS VL: EIVMTQSPATLSVSPGERATLSCRASQSIRNNLAWYRQKPGQAPRLLIYGASTRAAGVPARFSGSGSGTEFTLTISSLQSEDFAVYYCQQYINWPPLTFGGGTKVEIK"
value_unit = "nM"
endpoint_result = 1.72

[[record]]
binder = "antibody 2564 (antibody, V domains shown) VH: QVQLVQSGAEVKKPGSSVRVSCKASGGTFISYTFNWVRQAPGQGLEWMGRIIPIFGIVNYAQKFQGRVTIAADKSTSTAYMELSSLRSEDTAMYYCATATVDYDSGEEQSSFDPWGQGTLVTVSS VL: EIVLTQSPGTLSLSPGERATLSCRASQSVSSSYLAWYQQKAGQTPRLLIYAASSRATGVPDRFSGSGSGTDFTLTISRLEAEDFAVYYCQQSWTFGQGTKVEIK"
value_unit = "nM"
endpoint_result = 0.012

[[record]]
binder = "antibody 2050 (antibody, V domains shown) VH: QVQLVQSGAEVKKPGASVKVPCKVSGYTFTDHFIHWVRQAPGQGLEWMGWISPNSGGRNYTQKFQGRVTLTRDTAITTVHMDLSSLTPDDTAVYYCARDVRWAQLQGGFDLWGQGTMVTVSS VL: QSALTQPASVSGSPGQSITISCTGTSSDVGSYNLVSWYQQHPGKAPKLMIYEVSKRPSGVSNRFSGSKSGNTASLTISGLQADDEADYYCCSYAGDNNFLFGGGTSLTVL"
value_unit = "nM"
endpoint_result = 0.115

[[record]]
binder = "antibody 2020 (antibody, V domains shown) VH: QVQLVQSGAEVKKPGASVKVSCKASGYTFTDYFMHWVRQAPGQGLEWMGWVNPLSGGTNFAQKFQGRVTMTSDTSITTVYMELSRLRSDDTAVYYCARDPPLYSSTYGMDVWGQGTTVTVSS VL: QSALTQPASVSGSPGQSITISCTGTSSDVGAYNYVSWYQQHPGKAPKLMIYDVSDRPSGVSNRFSGSKSGNTASLTISGLQAEDEADYYCSSYTISSSVVFGGGTKLTVL"
value_unit = "nM"
endpoint_result = 0.0011


// field: Kd; key: antibody 4441 (antibody, V domains shown) VH: EVQLVESGGGLVQPGRSLRLSCAASGLTFEDYAMHWVRQPPGKGLEWVSGVSWNSGTIGYADSVKGRFTISRDNAKNSLYLHMRSLGAEDTAMYYCAKDMGGRFSFFSLENDAFDIWGQGTMVIVSS VL: SYELTQPPSVSVSPGQTARITCSGDALPKQSTYWYQQKPGQAPVLVIYKDIERPSGIPERFSGSSSGTTVTLTISGVQAEDEADYYCQSADSSDTYVFGTGTKVTVL ; value = 0.022

// field: Kd; key: antibody 935 (antibody, V domains shown) VH: EVQLVESGGGLVQPGGSLRLSCAASGFTVSSNYMSWVRQAPGKGLEWVSVIYSGGSTFYADSVKGRFTISRDNSRNTLYLQMNSLRAEDTAVYYCARDWGEFFFDFWGQGALVTVSS VL: EIVLTQSPGTLSLSPGERATLSCRASQTISSSYLAWYQQKPGQAPRLLISGASSRATGIPDRFSGSGSGTDFTLTISRLEPEDFAVYYCQQYGSSPRTFGQGTNVEIK ; value = 0.406
